# System: NCI/ADR-RES ovarian
# experiment_summary: NCI tumour cell line growth inhibition, 48 h
reported_property: TGI

Consider CC[C@H](C)C1=C(O)[N@+]2([O-])Oc3ccc(-c4c(O)c(O)c(-c5ccc(OC(C)=O)cc5)c(OC(C)=O)c4OC(C)=O)cc3O[C@]2([C@@H](C)CC)C(=O)N1O . Its measured TGI is > 50 µM

Consider CC(C)(C)CC(C)(C)N=C(N)NO . Its measured TGI is > 100 µM

Consider CN(C)C(=O)c1cc2cnc(Nc3ccc(-c4csc5c(=O)cc(N6CCNCC6)oc45)cc3)nc2n1C1CCCC1 . Its measured TGI is 32.7 µM

Consider Cc1cc(N(CCCCl)CCCCl)ccc1C=Nc1cccc(Cl)c1 . Its measured TGI is 33.4 µM

Consider N#CSCc1c(Cl)cccc1Cl . Its measured TGI is > 100 µM

Consider COc1cc2nc(N3CCCC3)nc(Nc3ccccc3)c2cc1OC . Its measured TGI is 4.07 µM

Consider CSCCCNC(=O)c1csc(-c2csc(CCN)n2)n1 . Its measured TGI is > 100 µM

Consider CO/N=C(/COc1c(-c2ccccc2)oc2ccccc2c1=O)c1ccc(OC)cc1 . Its measured TGI is > 100 µM

Consider C/C(=N\NC(=O)c1ccccc1O)c1cccc(/C(C)=N/NC(=O)c2ccccc2O)n1 . Its measured TGI is > 100 µM

Consider COc1ccccc1N1C(=O)CS(=O)(=O)C1c1cccc(Oc2ccccc2)c1 (configuration not stated) . Its measured TGI is 40 µM

Consider CCCCCCCCCCCC[n+]1ccccc1 . Its measured TGI is 50.7 µM

Consider c1ccc2sc(SCN(C3CCCCC3)C3CCCCC3)nc2c1 . Its measured TGI is > 100 µM

Consider COc1ccc2oc(=O)c(CC=C(C)C)c(O)c2c1C . Its measured TGI is > 100 µM

Consider COc1cc2nc(-c3ccccc3F)[nH]c(=O)c2cc1OC . Its measured TGI is > 100 µM

Consider CC(CO)(CO)Nc1ncnc2ccccc12 . Its measured TGI is > 100 µM

Consider C[C@H]1CCCCC[C@@H]2CC(=O)CC2C(=O)CCC(=O)O1 (some centres not stated) . Its measured TGI is > 100 µM

Consider NC(CSc1nc2ccccn2c1[N+](=O)[O-])C(=O)O (configuration not stated) . Its measured TGI is > 100 µM

Consider Cc1ccc2c(Nc3cccc(Cl)c3F)ncc(NC(=O)c3csc4c(N)ncnc34)c2c1 . Its measured TGI is > 100 µM

Consider C[C@]12CCC3c4ccc(O)cc4CCC3C1Cc1ccc(O)cc12 (some centres not stated) . Its measured TGI is 6.74 µM

Consider COc1cc(Br)cc2nc(-c3cccs3)oc12 . Its measured TGI is > 100 µM

Consider O=c1cc(-c2ccccc2)oc2ccc(-c3ccc4oc(-c5ccccc5)cc(=O)c4c3)cc12 . Its measured TGI is 51.5 µM

Consider CC1(O)CC2(O)C=CC3=C(C(=O)c4cccc(O)c4C3=O)C2(O)C(=O)C1O (configuration not stated) . Its measured TGI is 20.2 µM

---

Assignment: determine reported TGI for the given molecules.
# Test system: RPMI-8226 leukemia
# experiment_summary: NCI tumour cell line growth inhibition, 48 h
State just the number; it will be interpreted in µM.

Consider COc1cc(C)c2c(=O)c3c(oc2c1)C(=O)c1c(O)c(OC)cc(O)c1C3=O . Its measured TGI is 4.48

Consider CCCCCCCCCCCCCCCCOCC(COP(=O)([O-])OCC[n+]1ccc(N(C)C)cc1)OCC (configuration not stated) . Its measured TGI is 17.1

Consider COc1cc([C@@H]2c3cc4c(cc3[C@@H](NCc3ccccc3)C3COC(=O)[C@@H]32)OCO4)cc(OC)c1O (some centres not stated) . Its measured TGI is 21.2

Consider Nc1nc(N)c2c(ccc3nccc32)[nH]1 . Its measured TGI is 21.7

Consider C[C@]12CC[C@H](O)C=C1CC[C@@H]1[C@@H]2CC[C@]2(C)C(=N/O)/C(=C/c3ccncc3)C[C@@H]12 . Its measured TGI is 19.9

Consider CC1(C)CC(=O)c2c(ccc(C(=O)C[C@H](N)CO)c2N)O1 . Its measured TGI is 17.5

Consider Cc1ccc(C(CC(=O)C(C)(C)CN2CCCCC2)SCCS(=O)(=O)O)cc1 (configuration not stated) . Its measured TGI is 48.1

Consider CN1C(=O)c2c(c3c4ccccc4n(C4OC(CO)C(O)C(O)C4O)c3c3[nH]c4ccccc4c23)C1=O (configuration not stated) . Its measured TGI is 59.8

Consider O=C(Nc1nnc(-c2c(Cl)c(Cl)c(Cl)c(Cl)c2-c2nc3cc(C(=O)c4ccccc4)ccc3[nH]2)o1)c1ccccc1 . Its measured TGI is 30.4

Consider CC(C)=C[C@@H]1C[C@H](C)c2c(O)cc(C)c3c2C1=C(C)C(=O)C3=O . Its measured TGI is 41.6

Consider COc1cc2ccnc3c2c(c1OC)-c1ccc(=O)ccc1-3 . Its measured TGI is 51.9

Consider CCN(CC)CCCOc1cc(O)c2c(=O)cc(-c3ccccc3)oc2c1 . Its measured TGI is 28.4

Consider N#Cc1cccc(/C=C(/C(=O)c2ccccc2)c2ccccc2)c1 . Its measured TGI is 9.27

Consider CN(C)CC/C(=N\Nc1ccc(Cl)c(Cl)c1)c1ccccc1 . Its measured TGI is 6.73

Consider CCOC(=O)Cn1c(C)c(/C=N/NC(=O)c2cc3c(ccc4ccccc43)o2)c2ccccc21 . Its measured TGI is 3.12

Consider CC(=O)O[C@H]1CC[C@]2(C)[C@H]3CC=C4[C@@H]5CC(C)(C)CC[C@]5(C(=O)NCCNCCN)CC[C@@]4(C)[C@]3(C)CC[C@H]2C1(C)C . Its measured TGI is 3.52

Consider CN1CCN(Cc2ccc(NC(=O)c3nc4ccc5[nH]ncc5c4c4c3CCC4)cc2C(F)(F)F)CC1 . Its measured TGI is 2.82

Consider CC1(C)N=C(N)N=C(N)N1c1cccc(CCCCc2ccccc2)c1 . Its measured TGI is 2.72

Consider O=C1c2ccccc2C(=O)c2c1ccc(C(=O)O)c2-c1ccc2ccccc2c1 . Its measured TGI is 83.8

---

Assignment: determine reported TGI for the given compounds.
# System: RXF 393 renal
# experiment_summary: NCI tumour cell line growth inhibition, 48 h
State just the number; it will be interpreted in µM.

Consider CC1(O)CC2(O)C=CC3=C(C(=O)c4cccc(O)c4C3=O)C2(O)C(=O)C1O (stereo not drawn) . Its measured TGI is 2.13

Consider CC[N+]1(C)CCC(O)(c2ccccc2)C(C(=O)c2ccccc2)C1 (stereo not drawn) . Its measured TGI is 26.6

Consider COC(=O)c1ccc2c(c1)C(=O)c1c-2n(CCCN)c(=O)c2cc([N+](=O)[O-])ccc12 . Its measured TGI is 0.118

Consider COc1cc2ccnc(-c3c4ccccc4c(N)c4c(OC)c(OC)ccc34)c2cc1OC . Its measured TGI is 6.87

Consider O=C(Nc1nc2ccccc2n1Cc1ccc(Cl)cc1)NC12CC3CC(CC(C3)C1)C2 . Its measured TGI is 64.5

Consider CC1OC(OC2CCCc3c(O)c4c(c(O)c32)C(=O)c2ccccc2C4=O)CC(N)C1O (stereo not drawn) . Its measured TGI is 2.23

Consider Cc1cc(N(CCCCl)CCCCl)ccc1C=Nc1cccc(Cl)c1 . Its measured TGI is 35.5

Consider C[C@]12CC[C@H](O)C=C1CC[C@@H]1[C@@H]2CC[C@]2(C)C(=N/O)/C(=C/c3ccncc3)C[C@@H]12 . Its measured TGI is 26.3

---

# System: NCI-H522 lung
# experiment_summary: NCI tumour cell line growth inhibition, 48 h
Please enter fulfilled where TGI is greater than or equal to 7 µM, and not fulfilled where it is lower.

Qu. Tell me whether TGI is at least 7 µM here: CCC[CH2][Ge]([CH2]CCC)([CH2]CCC)[O]C(=O)C(O)c1ccccc1 (centres undefined)
Ans. not fulfilled

Qu. Tell me whether TGI is at least 7 µM here: CC(C)[Si](OC1=C(C(=O)N(C)c2ccccc2Cl)CCCC1)(C(C)C)C(C)C
Ans. fulfilled

Qu. Tell me whether TGI is at least 7 µM here: O=P(O)(O)C1CCCC(P(=O)(O)O)N1 (centres undefined)
Ans. fulfilled

Qu. Tell me whether TGI is at least 7 µM here: COC(=O)[C@]12CCC(C)(C)C[C@H]1C1=CC[C@@H]3[C@@]4(C)CC[C@H](OC5OC(CO)C(O)C(O)C5OC5OC(CO)C(O)C(O)C5O)C(C)(C)[C@@H]4CC[C@@]3(C)[C@]1(C)CC2 (some centres undefined)
Ans. fulfilled

Qu. Tell me whether TGI is at least 7 µM here: Cc1ccc(C2(O)CC(c3ccc([N+](=O)[O-])o3)=NN2C(=O)COc2ccccc2Cl)cc1 (centres undefined)
Ans. fulfilled

Qu. Tell me whether TGI is at least 7 µM here: CC(=O)OC1CCC2(C)C(CCC3C4CC=C(C(C)=O)C4(C)OC(=O)CC32)C1 (centres undefined)
Ans. not fulfilled

Qu. Tell me whether TGI is at least 7 µM here: CCC1(C(=O)OC)CCc2c(OC)ccc(OC)c2C1=O (centres undefined)
Ans. fulfilled

Qu. Tell me whether TGI is at least 7 µM here: CCN(C(=O)CCl)C(C)(C)C(SSSC(c1ccc(Cl)cc1)C(C)(C)N(CC)C(=O)CCl)c1ccc(Cl)cc1 (centres undefined)
Ans. not fulfilled

Qu. Tell me whether TGI is at least 7 µM here: Cc1cc(C)n(-c2nc3ccccc3c(=O)n2-c2ccccc2)n1
Ans. fulfilled

Qu. Tell me whether TGI is at least 7 µM here: COc1ccc(/C=C2\SC(c3ccc(OC)cc3)N(NC(=O)Cc3ccccc3)C2=O)cc1 (centres undefined)
Ans. fulfilled

Qu. Tell me whether TGI is at least 7 µM here: O=C1OC(C2=CC(=O)c3ccccc3C2=O)C(Cl)=C1Cl (centres undefined)
Ans. fulfilled

Qu. Tell me whether TGI is at least 7 µM here: COc1cc(Br)cc2nc(-c3cccs3)oc12
Ans. fulfilled

Qu. Tell me whether TGI is at least 7 µM here: CN(C)/C=C(\C(=O)c1ccccc1)n1nc(-c2ccccc2)cc1-c1ccccc1
Ans. fulfilled

Qu. Tell me whether TGI is at least 7 µM here: COC(=O)c1ccc2c(c1)C(=O)c1c-2n(CCCN)c(=O)c2cc([N+](=O)[O-])ccc12
Ans. not fulfilled

Qu. Tell me whether TGI is at least 7 µM here: C/C1=C\[C@H](C)C[C@H](C)OC(=O)C[C@H](c2ccc(O)cc2)NC(=O)[C@H](Cc2ccc(O)c(Br)c2)N(C)C(=O)[C@H](C)NC(=O)[C@@H](C)C1
Ans. fulfilled

Qu. Tell me whether TGI is at least 7 µM here: Nc1ccc2c(c1)CC1c3ccccc3C(C2)c2ccccc21
Ans. fulfilled

Qu. Tell me whether TGI is at least 7 µM here: CC1(O)CC23CC1CCC2(C)C12CCCC(C)(C(=O)O1)C2CC3O (centres undefined)
Ans. fulfilled

Qu. Tell me whether TGI is at least 7 µM here: COc1ccc2c(c1)CCCN1Cc3cc(OC)c(OC)cc3CC21 (centres undefined)
Ans. fulfilled

This collection of values is drawn from PubChem BioAssay (NCI).
